Data credit: patent US11053233B2

assay name: Solubility measurements in biorelevant media (shake flask 24 h, HPLC)
Assay type: physicochemical
test context: simulated gastric fluid without pepsin (SGF), pH 1.2, simulated gastric fluid, thermodynamic from solid; SGF, pH of medium 1.2, 37 °C, 24 h
value kind: solubility at 24 h
Give your result as the value with the unit written after it.

Q. Can you look up the measured solubility at 24 h of COc1ccc([C@@H](O)c2cc(-c3ncnc4cc(N5CCOCC5)ccc34)c(F)cc2Cl)nn1 [anhydrous disordered crystalline form] for me?
A. 2020 µg/mL

----------
assay name: Solubility measurements in biorelevant media (shake flask 24 h, HPLC)
Format: physicochemical
test context: fed state simulated intestinal fluid (FeSSIF), pH 5, thermodynamic from solid; FeSSIF, pH of medium 5.0, 37 °C, 24 h
value kind: solubility at 24 h (µg/mL)
Write the number in µg/mL without appending the unit.

Q. Can you look up the measured solubility at 24 h of COc1ccc([C@@H](O)c2cc(-c3ncnc4cc(N5CCOCC5)ccc34)c(F)cc2Cl)nn1 [anhydrous disordered crystalline form] for me?
A. 56
